Every entry's value here was drawn from ChEMBL document CHEMBL1132421.

Test system: chymotrypsin
METHOD DESCRIPTION: Percentage of intact compound after chymotrypsin cleavage at 37 degree C for 120 min
Assay type: ADME
EXPERIMENTAL PARAMETERS: read-out: Stability
PROPERTY LABEL: remaining at 2 h

Identify measured remaining at 2 h associated with CCCCCC(NC(=O)c1ccc(C#N)cc1)C(C)(C)C(=O)N[C@@H](Cc1ccccc1)C(=O)OCC (stereo partly drawn)
3%

Return value of remaining at 2 h for input CCOC(=O)[C@H](Cc1ccccc1)NC(=O)C(C)(C)C(CC(C)C)NC(=O)c1ccc(C#N)cc1 (stereo partly drawn) , no commentary.
41%

Consider the molecule CCCC(NC(=O)c1ccc(C#N)cc1)C(C)(C)C(=O)N[C@@H](Cc1ccccc1)C(=O)OCC (stereo partly drawn) . State its measured remaining at 2 h.
11%

Please report remaining at 2 h for the following molecule: CCCCCCC(NC(=O)c1ccc(C#N)cc1)C(C)(C)C(=O)N[C@@H](Cc1ccccc1)C(=O)OC(C)C (stereo partly drawn)
98%

Report remaining at 2 h, nothing else, for this molecule: CCOC(=O)[C@H](Cc1ccccc1)NC(=O)C(C)(C)C(CC)NC(=O)c1ccc(C#N)cc1 (stereo partly drawn)
91%

Kindly indicate its recorded remaining at 2 h. Item: CCCCCCC(NC(=O)c1ccc(C#N)cc1)C(C)(C)C(=O)N[C@@H](Cc1ccccc1)C(=O)OC (stereo partly drawn)
98%

Tell me remaining at 2 h reported for CCCCCCC(NC(=O)c1ccc(C#N)cc1)C(C)(C)C(=O)N[C@@H](Cc1ccccc1)C(=O)OCCC (stereo partly drawn)
97%

Give me measured remaining at 2 h, please, for this molecule: CCCCCCCCC(NC(=O)c1ccc(C#N)cc1)C(C)(C)C(=O)N[C@@H](Cc1ccccc1)C(=O)OCC (stereo partly drawn)
61%

----------
Kindly state IC50 for each of the entries shown.
Write it as a number; the unit µM goes unstated.

Report value only: IC50, Chymotrypsinogen A (Bos taurus, UniProt P00766), CCCCCCC(NC(=O)c1ccc(C#N)cc1)C(C)(C)C(=O)N[C@@H](Cc1ccccc1)C(=O)OC(C)(C)C (stereo partly drawn)
73

Quote Chymotrypsinogen A (Bos taurus, UniProt P00766) IC50 for entry CCCCCCC(NC(=O)c1ccc(C#N)cc1)C(C)(C)C(=O)N[C@@H](Cc1ccccc1)C(=O)OC (stereo partly drawn) .
1.1

Jot down IC50 (Chymotrypsinogen A (Bos taurus, UniProt P00766)) of CCCCCCCCC(NC(=O)c1ccc(C#N)cc1)C(C)(C)C(=O)N[C@@H](Cc1ccccc1)C(=O)OCC (stereo partly drawn) .
8.6

----------
Entries with reported IC50 on Chymotrypsinogen A (Bos taurus)
Respond with the bare value in nM.

Identify measured IC50 corresponding to CCCCCCC(NC(=O)c1ccc(C#N)cc1)C(C)(C)C(=O)N[C@@H](Cc1ccccc1)C(=O)OCCC (some centres undefined)
230

Return IC50 for the following compound: CCCCCCC(NC(=O)c1ccc(C#N)cc1)C(C)(C)C(=O)N[C@@H](Cc1ccccc1)C(=O)OC(C)C (some centres undefined)
86

Given CCCCC(NC(=O)c1ccc(C#N)cc1)C(C)(C)C(=O)N[C@@H](Cc1ccccc1)C(=O)OCC (some centres undefined) , respond with its IC50.
27000

Using known records, supply IC50 for CCCCCCC(NC(=O)OC(C)(C)C)C(C)(C)C(=O)N[C@@H](Cc1ccccc1)C(=O)OCC (some centres undefined)
1000
